The following compounds are shown together with reported ΔLag (ratio of lag time with test compound to lag time of control) values.
Target: Aβ1-40 (Homo sapiens)
Construct: (β-AP1-40) was obtained commercially from Bachem (Torrance, Calif.); purchased Bachem (Torrance, Calif.)
Experiment: Nucleation assay (turbidity, A405 nm)
Assay type: biochemical
Conditions: Table V; 100 mole % inhibitor relative to Aβ1-40
Peptide text beside a SMILES is read from it. * marks the point of attachment. Cholyl = C[C@H](CCC(=O)*)[C@H]1CC[C@H]2[C@@H]3[C@H](O)C[C@@H]4C[C@H](O)CC[C@]4(C)[C@H]3C[C@H](O)[C@]12C
Observed property: ΔLag (ratio of lag time with test compound to lag time of control)

>  <Compound>
C[C@H](CCC(=O)N[C@@H](Cc1c[nH]cn1)C(=O)N[C@@H](CC(=O)O)C(=O)N[C@@H](CO)C(=O)NCC(=O)N[C@@H](Cc1ccc(O)cc1)C(N)=O)[C@H]1CC[C@H]2[C@@H]3[C@H](O)C[C@@H]4C[C@H](O)CC[C@]4(C)[C@H]3C[C@H](O)[C@]12C [PPI-339] (Cholyl-HDSGY-NH2)

>  <Relation operator>
=

>  <Val>
1.1

$$$$
>  <Compound>
CC(C)C[C@H](N)C(=O)N[C@H](C(=O)N[C@@H](Cc1ccccc1)C(=O)N[C@@H](Cc1ccccc1)C(=O)N[C@@H](C)C(N)=O)C(C)C [PPI-405]

>  <Relation operator>
=

>  <Val>
1.3

$$$$
>  <Compound>
C[C@H](NC(=O)[C@H](C)NC(=O)[C@H](C)NC(=O)[C@H](C)NC(=O)[C@H](C)NC(=O)CC[C@@H](C)[C@H]1CC[C@H]2[C@@H]3[C@H](O)C[C@@H]4C[C@H](O)CC[C@]4(C)[C@H]3C[C@H](O)[C@]12C)C(=O)O [PPI-365, Cholyl-penta-alanine]

>  <Relation operator>
=

>  <Val>
0.8

$$$$
>  <Compound>
CC(C)C[C@H](NC(=O)[C@@H](N)CCCCN)C(=O)N[C@H](C(=O)N[C@@H](Cc1ccccc1)C(=O)N[C@@H](Cc1ccccc1)C(N)=O)C(C)C [PPI-387]

>  <Relation operator>
=

>  <Val>
1.3

$$$$
>  <Compound>
CC(C)C[C@H](NC(=O)[C@H](CCCCN)NC(=O)CC[C@@H](C)[C@H]1CC[C@H]2[C@@H]3[C@H](O)C[C@@H]4C[C@H](O)CC[C@]4(C)[C@H]3C[C@H](O)[C@]12C)C(=O)N[C@H](C(=O)N[C@@H](C)C(=O)N[C@@H](Cc1ccccc1)C(=O)O)C(C)C [PPI-370, cholyl-Aβ16-20 Phe19->Ala] (Cholyl-KLVAF-OH)

>  <Relation operator>
=

>  <Val>
2.6

$$$$
>  <Compound>
CC(C)C[C@H](NC(=O)CC[C@@H](C)[C@H]1CC[C@H]2[C@@H]3[C@H](O)C[C@@H]4C[C@H](O)CC[C@]4(C)[C@H]3C[C@H](O)[C@]12C)C(=O)N[C@H](C(=O)N[C@@H](Cc1ccccc1)C(=O)N[C@@H](Cc1ccccc1)C(=O)N[C@@H](C)C(=O)O)C(C)C [PPI-368, cholyl-Aβ17-21]

>  <Relation operator>
>

>  <Val>
5

$$$$
>  <Compound>
CC(C)C[C@H](NC(=O)[C@H](CCCCN)NC(=O)[C@H](CCC(N)=O)NC(=O)CC[C@@H](C)[C@H]1CC[C@H]2[C@@H]3[C@H](O)C[C@@H]4C[C@H](O)CC[C@]4(C)[C@H]3C[C@H](O)[C@]12C)C(=O)N[C@H](C(=O)N[C@@H](Cc1ccccc1)C(=O)N[C@@H](Cc1ccccc1)C(=O)O)C(C)C [PPI-349, cholyl-Aβ15-20]

>  <Relation operator>
>

>  <Val>
5

$$$$
>  <Compound>
CC(C)C[C@H](NC(=O)[C@H](CCCCN)NC(=O)CC[C@@H](C)[C@H]1CC[C@H]2[C@@H]3[C@H](O)C[C@@H]4C[C@H](O)CC[C@]4(C)[C@H]3C[C@H](O)[C@]12C)C(=O)N[C@H](C(=O)N[C@@H](Cc1ccccc1)C(=O)N[C@@H](Cc1ccccc1)C(=O)O)[C@@H](C)O [PPI-369] (Cholyl-KLTFF-OH)

>  <Relation operator>
=

>  <Val>
1.1

$$$$
>  <Compound>
CC(C)C[C@H](NC(=O)[C@H](CCCCN)NC(=O)CC[C@@H](C)[C@H]1CC[C@H]2[C@@H]3[C@H](O)C[C@@H]4C[C@H](O)CC[C@]4(C)[C@H]3C[C@H](O)[C@]12C)C(=O)N[C@H](C(=O)N[C@@H](Cc1ccccc1)C(=O)N[C@@H](Cc1ccccc1)C(=O)O)C(C)C [PPI-350, cholyl-Aβ16-20]

>  <Relation operator>
=

>  <Val>
1.8

$$$$

---

Molecular target: Aβ1-40 (Homo sapiens)
Construct: (β-AP1-40) was obtained commercially from Bachem (Torrance, Calif.); purchased Bachem (Torrance, Calif.)
Test: Nucleation assay (turbidity, A405 nm)
Type: biochemical
Details: Table III; 33 mole %
Peptide text beside a SMILES is read from it. * marks the point of attachment. Cholyl = C[C@H](CCC(=O)*)[C@H]1CC[C@H]2[C@@H]3[C@H](O)C[C@@H]4C[C@H](O)CC[C@]4(C)[C@H]3C[C@H](O)[C@]12C
Below is a list of entries, each paired with its recorded Fold Increase in Lag Time value.

>  <Compound>
CC(C)C[C@H](NC(=O)[C@H](CCCCN)NC(=O)[C@H](CCC(N)=O)NC(=O)[C@H](Cc1c[nH]cn1)NC(=O)[C@H](Cc1c[nH]cn1)NC(=O)[C@@H](NC(=O)[C@H](CCC(=O)O)NC(=O)[C@H](Cc1ccc(O)cc1)NC(=O)CNC(=O)[C@H](CO)NC(=O)[C@H](CC(=O)O)NC(=O)[C@H](Cc1c[nH]cn1)NC(=O)CC[C@@H](C)[C@H]1CC[C@H]2[C@@H]3[C@H](O)C[C@@H]4C[C@H](O)CC[C@]4(C)[C@H]3C[C@H](O)[C@]12C)C(C)C)C(N)=O [PPI-325] (Cholyl-HDSGYEVHHQKL-NH2)

>  <Value units>
fold

>  <Fold Increase in Lag Time>
1.8

$$$$
>  <Compound>
CC(C)[C@H](NC(=O)[C@H](CCC(=O)O)NC(=O)[C@H](Cc1ccc(O)cc1)NC(=O)CNC(=O)[C@H](CO)NC(=O)[C@H](CC(=O)O)NC(=O)[C@H](Cc1c[nH]cn1)NC(=O)CC[C@@H](C)[C@H]1CC[C@H]2[C@@H]3[C@H](O)C[C@@H]4C[C@H](O)CC[C@]4(C)[C@H]3C[C@H](O)[C@]12C)C(=O)N[C@@H](Cc1c[nH]cn1)C(=O)N[C@@H](Cc1c[nH]cn1)C(N)=O [PPI-331] (Cholyl-HDSGYEVHH-NH2)

>  <Value units>
fold

>  <Fold Increase in Lag Time>
1.0

$$$$

---

Molecular target: Aβ1-40 (Homo sapiens, UniProt P05067)
Construct: (β-AP1-40) was obtained commercially from Bachem (Torrance, Calif.); purchased Bachem (Torrance, Calif.)
Sequence (P05067 672-711): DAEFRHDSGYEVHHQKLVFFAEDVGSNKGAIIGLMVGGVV
Experiment: Nucleation assay (turbidity, A405 nm);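 further: synthetic Aβ monomer polymerization followed by turbidity in 96-well plates with continuous shaking, read every 15 minutes over 5 hours, compared against wells lacking test compound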
Assay type: biochemical
Settings: Table IV; 10 mole %
Peptide text beside a SMILES is read from it. * marks the point of attachment. Cholyl = C[C@H](CCC(=O)*)[C@H]1CC[C@H]2[C@@H]3[C@H](O)C[C@@H]4C[C@H](O)CC[C@]4(C)[C@H]3C[C@H](O)[C@]12C
Hi! Just check whether Fold Increase in Lag Time is below 2 fold. Below gives 1, equal or above gives 0.

>  <Compound>
CC(C)C[C@H](NC(=O)[C@H](CCCCN)NC(=O)CC[C@@H](C)[C@H]1CC[C@H]2[C@@H]3[C@H](O)C[C@@H]4C[C@H](O)CC[C@]4(C)[C@H]3C[C@H](O)[C@]12C)C(=O)N[C@H](C(=O)N[C@@H](Cc1ccccc1)C(=O)N[C@@H](Cc1ccccc1)C(N)=O)C(C)C [PPI-319, cholyl-Aβ16-20-amide]

>  <System>
Aβ1-40 (Homo sapiens, UniProt P05067)

>  <Category label>
0

$$$$
>  <Compound>
CC(C)C[C@H](NC(=O)[C@H](CCCCN)NC(=O)CC[C@@H](C)[C@H]1CC[C@H]2[C@@H]3[C@H](O)C[C@@H]4C[C@H](O)CC[C@]4(C)[C@H]3C[C@H](O)[C@]12C)C(=O)N[C@H](C(=O)N[C@@H](Cc1ccccc1)C(=O)N[C@@H](Cc1ccccc1)C(=O)O)C(C)C

>  <System>
Aβ1-40 (Homo sapiens, UniProt P05067)

>  <Category label>
0

$$$$
>  <Compound>
CC(C)C[C@H](NC(=O)[C@H](CCCCN)NC(=O)[C@H](CCC(N)=O)NC(=O)CC[C@@H](C)[C@H]1CC[C@H]2[C@@H]3[C@H](O)C[C@@H]4C[C@H](O)CC[C@]4(C)[C@H]3C[C@H](O)[C@]12C)C(=O)N[C@H](C(=O)N[C@@H](Cc1ccccc1)C(=O)N[C@@H](Cc1ccccc1)C(=O)O)C(C)C

>  <System>
Aβ1-40 (Homo sapiens, UniProt P05067)

>  <Category label>
0

$$$$
>  <Compound>
CC(C)C[C@H](NC(=O)[C@H](CCCCN)NC(=O)[C@H](CCC(N)=O)NC(=O)[C@H](Cc1c[nH]cn1)NC(=O)[C@H](Cc1c[nH]cn1)NC(=O)CC[C@@H](C)[C@H]1CC[C@H]2[C@@H]3[C@H](O)C[C@@H]4C[C@H](O)CC[C@]4(C)[C@H]3C[C@H](O)[C@]12C)C(=O)N[C@H](C(=O)N[C@@H](Cc1ccccc1)C(=O)N[C@@H](Cc1ccccc1)C(=O)O)C(C)C [PPI-347, cholyl-Aβ13-20] (Cholyl-HHQKLVFF-OH)

>  <System>
Aβ1-40 (Homo sapiens, UniProt P05067)

>  <Category label>
0

$$$$
>  <Compound>
CC(C)C[C@H](NC(=O)[C@H](CCCCN)NC(=O)[C@H](CCC(N)=O)NC(=O)CC[C@@H](C)[C@H]1CC[C@H]2[C@@H]3[C@H](O)C[C@@H]4C[C@H](O)CC[C@]4(C)[C@H]3C[C@H](O)[C@]12C)C(=O)N[C@H](C(=O)N[C@@H](Cc1ccccc1)C(=O)O)C(C)C [PPI-366] (Cholyl-QKLVF-OH)

>  <System>
Aβ1-40 (Homo sapiens, UniProt P05067)

>  <Category label>
1

$$$$
